target: T1, human Ror2 (human, UniProt Q01974 34-403, limits assumed); test: ELISA, human Ror2, pH 6.0; further: unit not given here
T1 construct: also called hROR2; receptor tyrosine kinase-like orphan receptor 2
T1 sequence (Q01974 34-403 limits assumed): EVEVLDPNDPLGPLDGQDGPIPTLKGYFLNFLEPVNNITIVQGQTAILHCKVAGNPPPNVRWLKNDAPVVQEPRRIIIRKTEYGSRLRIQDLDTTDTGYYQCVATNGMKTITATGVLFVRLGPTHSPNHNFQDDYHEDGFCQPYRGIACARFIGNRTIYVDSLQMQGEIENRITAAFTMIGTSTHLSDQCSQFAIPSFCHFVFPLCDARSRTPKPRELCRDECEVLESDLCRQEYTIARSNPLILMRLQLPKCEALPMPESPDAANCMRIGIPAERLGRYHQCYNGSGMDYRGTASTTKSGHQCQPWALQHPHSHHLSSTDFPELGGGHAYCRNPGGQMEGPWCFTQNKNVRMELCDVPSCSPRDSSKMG

{"Binder": "HC-G099E (antibody, V domains shown) VH: EVQLQQSGPELVKPGASVKISCKTSGYTFTEYTMHWMKQSHRKSLEWIGGINTNNGGTGYNQKFKGKATLTVDKSSSTAYMELRSLTSEDSAVYFCARESLYSYGNSYFDYWGQGTLVTVSS VL: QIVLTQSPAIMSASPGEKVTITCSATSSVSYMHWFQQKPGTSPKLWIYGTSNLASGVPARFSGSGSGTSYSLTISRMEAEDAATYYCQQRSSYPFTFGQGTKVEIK", "Affinity ELISA pH 6.0": 0.616}
{"Binder": "HC-G105D (antibody, V domains shown) VH: EVQLQQSGPELVKPGASVKISCKTSGYTFTEYTMHWMKQSHRKSLEWIGGINTNNGGTGYNQKFKGKATLTVDKSSSTAYMELRSLTSEDSAVYFCARGSLYSYDNSYFDYWGQGTLVTVSS VL: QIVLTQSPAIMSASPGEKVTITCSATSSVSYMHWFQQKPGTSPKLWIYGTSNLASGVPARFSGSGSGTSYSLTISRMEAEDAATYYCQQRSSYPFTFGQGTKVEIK", "Affinity ELISA pH 6.0": 0.509}
